// TI value (therapy index, TC50/IC50) lookup, one value per entry
tested on: bovine viral diarrhea virus (BVDV-AV69); assay: CPE observation of effects on cytopathy caused by BVDV in MDBK cells; conditions: MDBK cells, BVDV-AV69; TC50 from MTT, IC50 from CPE
Response field accepts a number only; no unit should be typed.

Identify TI value (therapy index, TC50/IC50) associated with the compound C=C1CC[C@@H]2[C@](C)(CO)[C@H](O)CC[C@@]2(C)[C@@H]1C/C=C1/C(=O)OC[C@H]1O [AD, andrographolide]
14.4

Now for the compound whose TI value (therapy index, TC50/IC50) we want.
Identify TI value (therapy index, TC50/IC50) associated with the compound NC(=O)c1ncn([C@@H]2O[C@H](CO)[C@@H](O)[C@H]2O)n1 [Ribavirin(R), Ribavirin, reference compound]
4

Just for reference, patent US9636324B2 is where these values come from.
